Test system: Staphylococcus aureus-SMITH (GC 4543)
Assay: Acute lethal infection in mice (ED50)
Assay type: in vivo
Conditions: female CD-1 mice, intraperitoneal challenge, intravenous dose 30 min. after infection, 7 day survival ratios
Method: The therapeutic effects of glycopeptide antibiotics of Formula I are determined against acute lethal infections with S. aureus (strain Smith), a penicillin resistant strain of S. pneumoniae (strain GC 1894), and a vancomycin resistant strain of E. fecalis (strain GC 6189 and GC 2246). […]
RESULT TYPE: median effective dose (ED50), Staphylococcus aureus-SMITH (GC 4543)

| COMPOUND | REPORTED RESULT |
| --- | --- |
| CC(c1ccccc1)C1NC(=O)CNC(=O)C(CO)NC(=O)C(CC2CNC(=N)N2C2OC(CO)C(O)C(O)C2O)NC(=O)C(CC2CNC(=N)N2)NC(=O)C(Cc2ccc(OC3OC(CO)C(OC4OC(CO)C(O)C(O)C4O)C(O)C3O)cc2)NC1=O (centres unmarked) [Example 277a] | >8 |
| CC(c1ccccc1)C1NC(=O)CNC(=O)C(CO)NC(=O)C(C(O)C2CNC(=N)N2C2OC(CO)C(O)C(O)C2O)NC(=O)C(C(O)C2CNC(=N)N2)NC(=O)C(Cc2ccc(OC3OC(CO)C(OC4OC5COC(Cc6ccc(F)cc6)OC5C(O)C4O)C(O)C3O)cc2)NC1=O (centres unmarked) | 0.32 mg/kg |

###

tested on: Staphylococcus sp.; assay: In vitro antibacterial evaluation: minimum inhibitory concentration (MIC), broth dilution method; assay type: cell-based; conditions: broth dilution, 18 hours at 35° C.
Numbered stars: 1 amine (or outer) side, 2 acyl side, 3 side chain; on linkers, the order of the positions; unused ones are H or OH. Square brackets hold non-standard residues; d marks the D form. Peptide text beside a SMILES is read from it. ξ: configuration not given here. X1 = N=C1NCC(C(O)C(N[*:1])C(=O)[*:2])N1C1OC(CO)C(O)C(O)C1O; ξEnduracididine(βξ-OH,4'ξ) = N=C1NCC(C(O)C(N)C(=O)O)N1; Cha = N[CH](CC1CCCCC1)C(=O)O
RESULT TYPE: MIC Coagulase Negative Staphylococcus (GC 4549)

| MOLECULE | REPORTED RESULT |
| --- | --- |
| COc1cc(-c2nc3cc(CC4NC(=O)C(C(C)c5ccccc5)NC(=O)CNC(=O)C(CO)NC(=O)C(C(O)C5CNC(=N)N5C5OC(CO)C(O)C(O)C5O)NC(=O)C(C(O)C5CNC(=N)N5)NC4=O)ccc3o2)cc(OC)c1OC (stereo not shown) [Example 34] | 4 mg/L |
| COc1ccc(Oc2cccc(-c3nc4cc(CC5NC(=O)C(C(C)c6ccccc6)NC(=O)CNC(=O)C(CO)NC(=O)C(C(O)C6CNC(=N)N6C6OC(CO)C(O)C(O)C6O)NC(=O)C(C(O)C6CNC(=N)N6)NC5=O)ccc4o3)c2)cc1 (stereo not shown) [Example 35] | 8 mg/L |
| CC(c1ccccc1)C1NC(=O)CNC(=O)C(CO)NC(=O)C(CC2CNC(=N)N2C2OC(CO)C(O)C(O)C2O)NC(=O)C(CC2CNC(=N)N2)NC(=O)C(Cc2ccc3oc(-c4ccc5c(c4)Cc4ccccc4-5)nc3c2)NC1=O (stereo not shown) [Example 42] | 1 mg/L |
| CC(c1ccccc1)C1NC(=O)CNC(=O)C(CO)NC(=O)C(C(O)C2CNC(=N)N2C2OC(CO)C(O)C(O)C2O)NC(=O)C(C(O)C2CNC(=N)N2)NC(=O)C(Cc2ccc3oc(SCc4ccc5ccccc5c4)nc3c2)NC1=O (stereo not shown) [Example 46] | 2 mg/L |
| CC(c1ccccc1)C1NC(=O)CNC(=O)C(CO)NC(=O)C(C(O)C2CNC(=N)N2C2OC(CO)C(O)C(O)C2O)NC(=O)C(C(O)C2CNC(=N)N2)NC(=O)C(Cc2ccc3oc(SCc4ccc(-c5ccccc5)cc4)nc3c2)NC1=O (stereo not shown) [Example 47] | 0.5 mg/L |
| CC(c1ccccc1)C1NC(=O)CNC(=O)C(CO)NC(=O)C(C(O)C2CN(Cc3ccc(-c4ccccc4)cc3)C(=N)N2C2OC(CO)C(O)C(O)C2O)NC(=O)C(C(O)C2CNC(=NCc3ccc(-c4ccccc4)cc3)N2Cc2ccc(-c3ccccc3)cc2)NC(=O)C(Cc2ccc(OC3OC(CO)C(OC4OC(CO)C(O)C(O)C4O)C(O)C3O)cc2)NC1=O (stereo not shown) [Example 66] | 4 mg/L |
| CC(c1ccccc1)C1NC(=O)CNC(=O)C(CO)NC(=O)C(C(O)C2CNC(=N)N2C2OC(CO)C(O)C(O)C2O)NC(=O)C(C(O)C2CNC(=N)N2)NC(=O)C(Cc2ccc3oc(-c4ccc(C(C)(C)C)cc4)nc3c2)NC1=O (stereo not shown) [Example 32] | 2 mg/L |
| CC(c1ccccc1)C1NC(=O)CNC(=O)C(CO)NC(=O)C(C(O)C2CN(Cc3ccc4ccccc4c3)C(=N)N2C2OC(CO)C(O)C(O)C2O)NC(=O)C(C(O)C2CNC(=N)N2)NC(=O)C(Cc2ccc(OC3OC(CO)C(OC4OC5COC6(OC5C(O)C4O)C4CC5CC(C4)CC6C5)C(O)C3O)cc2)NC1=O (stereo not shown) [Example 78] | 8 mg/L |
| N=C1NCC(C(O)C2NC(=O)C(CC3CCCCC3)NC(=O)C(CC3CCCCC3)NC(=O)CNC(=O)C(CO)NC(=O)C(C(O)C3CNC(=N)N3C3OC(CO)C(O)C(O)C3O)NC2=O)N1 (stereo not drawn) [Example 52] (cyclo(G[Cha][Cha][ξEnduracididine(βξ-OH,4'ξ)][X1]S); configuration not given here) | 4 mg/L |
| CC(c1ccccc1)C1NC(=O)CNC(=O)C(CO)NC(=O)C(C(O)C2CNC(=N)N2C2OC(CO)C(O)C(O)C2O)NC(=O)C(C(O)C2CNC(=N)N2)NC(=O)C(Cc2ccc3oc(C=C(c4ccccc4)c4ccccc4)nc3c2)NC1=O (stereo not shown) [Example 39] | 4 mg/L |
